system: RXRa DBDmut IVT, anti-RXR (DBD mutation: RXRa K156A/R161A, NR concentration 90 nM); assay: PBM binding z-score (relative to random genomic background probes); higher = stronger binding; sequences stand for … in GC…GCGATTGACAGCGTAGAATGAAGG

[
  {
    "Sequence record": "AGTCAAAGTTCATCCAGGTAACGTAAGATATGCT",
    "PBM binding z-score": 4.61
  },
  {
    "Sequence record": "CGTCCAAGGTGAGCAGGTCAGTGAAAGCGACGTG",
    "PBM binding z-score": -0.254
  },
  {
    "Sequence record": "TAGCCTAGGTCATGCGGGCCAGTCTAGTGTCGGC",
    "PBM binding z-score": 0.255
  },
  {
    "Sequence record": "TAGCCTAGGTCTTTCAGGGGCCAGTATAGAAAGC",
    "PBM binding z-score": -0.58
  },
  {
    "Sequence record": "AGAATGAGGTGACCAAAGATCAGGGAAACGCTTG",
    "PBM binding z-score": -0.266
  },
  {
    "Sequence record": "GCGACTGGGGCAAAGCTGGTTACCATAAGGTTGG",
    "PBM binding z-score": 0.0315
  },
  {
    "Sequence record": "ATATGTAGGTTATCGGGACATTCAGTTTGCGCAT",
    "PBM binding z-score": 0.776
  },
  {
    "Sequence record": "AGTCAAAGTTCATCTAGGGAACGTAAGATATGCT",
    "PBM binding z-score": 4.67
  },
  {
    "Sequence record": "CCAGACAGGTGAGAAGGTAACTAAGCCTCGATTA",
    "PBM binding z-score": -0.275
  },
  {
    "Sequence record": "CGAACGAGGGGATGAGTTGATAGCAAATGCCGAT",
    "PBM binding z-score": 0.534
  },
  {
    "Sequence record": "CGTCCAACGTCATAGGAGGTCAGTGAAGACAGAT",
    "PBM binding z-score": 0.609
  },
  {
    "Sequence record": "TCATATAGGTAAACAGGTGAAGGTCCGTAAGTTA",
    "PBM binding z-score": 1.36
  },
  {
    "Sequence record": "GGAACGAGGGCATTCGAGTTGATGGCATGGCGAT",
    "PBM binding z-score": 3.15
  },
  {
    "Sequence record": "CGTAGTTGGTCAAGGTCACACACGCTATAGGTAC",
    "PBM binding z-score": 2.14
  },
  {
    "Sequence record": "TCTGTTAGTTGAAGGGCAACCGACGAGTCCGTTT",
    "PBM binding z-score": 1.1
  },
  {
    "Sequence record": "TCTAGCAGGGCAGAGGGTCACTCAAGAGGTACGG",
    "PBM binding z-score": -0.00739
  },
  {
    "Sequence record": "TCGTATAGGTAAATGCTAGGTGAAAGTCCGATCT",
    "PBM binding z-score": 1.07
  },
  {
    "Sequence record": "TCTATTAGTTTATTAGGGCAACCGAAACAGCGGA",
    "PBM binding z-score": 1.92
  },
  {
    "Sequence record": "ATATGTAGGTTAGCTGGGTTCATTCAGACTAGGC",
    "PBM binding z-score": 2.97
  },
  {
    "Sequence record": "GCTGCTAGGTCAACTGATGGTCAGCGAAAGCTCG",
    "PBM binding z-score": 1.57
  },
  {
    "Sequence record": "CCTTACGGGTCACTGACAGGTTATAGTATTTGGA",
    "PBM binding z-score": 1.85
  },
  {
    "Sequence record": "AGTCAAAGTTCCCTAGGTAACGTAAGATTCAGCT",
    "PBM binding z-score": 0.164
  },
  {
    "Sequence record": "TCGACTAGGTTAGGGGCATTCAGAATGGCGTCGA",
    "PBM binding z-score": 0.884
  },
  {
    "Sequence record": "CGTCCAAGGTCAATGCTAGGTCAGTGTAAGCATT",
    "PBM binding z-score": 3.74
  },
  {
    "Sequence record": "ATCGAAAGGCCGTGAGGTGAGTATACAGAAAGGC",
    "PBM binding z-score": -0.765
  },
  {
    "Sequence record": "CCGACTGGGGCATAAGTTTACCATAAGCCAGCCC",
    "PBM binding z-score": 0.17
  },
  {
    "Sequence record": "ATACCAAGGTGATCGTGAGGTCGTTCATACTAAC",
    "PBM binding z-score": 0.992
  },
  {
    "Sequence record": "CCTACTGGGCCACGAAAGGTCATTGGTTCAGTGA",
    "PBM binding z-score": 0.546
  },
  {
    "Sequence record": "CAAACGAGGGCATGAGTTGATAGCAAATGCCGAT",
    "PBM binding z-score": 2.13
  },
  {
    "Sequence record": "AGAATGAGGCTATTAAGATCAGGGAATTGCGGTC",
    "PBM binding z-score": 0.0802
  },
  {
    "Sequence record": "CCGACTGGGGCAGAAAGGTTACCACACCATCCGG",
    "PBM binding z-score": -0.654
  },
  {
    "Sequence record": "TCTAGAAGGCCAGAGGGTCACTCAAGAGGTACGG",
    "PBM binding z-score": 0.844
  },
  {
    "Sequence record": "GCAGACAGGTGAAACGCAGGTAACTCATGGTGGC",
    "PBM binding z-score": -0.582
  },
  {
    "Sequence record": "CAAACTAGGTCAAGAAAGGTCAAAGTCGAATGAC",
    "PBM binding z-score": 1.95
  },
  {
    "Sequence record": "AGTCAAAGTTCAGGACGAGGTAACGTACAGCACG",
    "PBM binding z-score": 2.99
  },
  {
    "Sequence record": "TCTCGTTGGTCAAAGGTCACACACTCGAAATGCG",
    "PBM binding z-score": 1.99
  },
  {
    "Sequence record": "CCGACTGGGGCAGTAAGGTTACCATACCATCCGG",
    "PBM binding z-score": -1.01
  },
  {
    "Sequence record": "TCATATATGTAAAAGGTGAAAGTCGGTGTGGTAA",
    "PBM binding z-score": 1.48
  },
  {
    "Sequence record": "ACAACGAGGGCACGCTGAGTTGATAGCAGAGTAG",
    "PBM binding z-score": 2.16
  },
  {
    "Sequence record": "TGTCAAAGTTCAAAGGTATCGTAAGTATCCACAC",
    "PBM binding z-score": 4.47
  },
  {
    "Sequence record": "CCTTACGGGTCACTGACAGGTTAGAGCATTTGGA",
    "PBM binding z-score": 1.55
  },
  {
    "Sequence record": "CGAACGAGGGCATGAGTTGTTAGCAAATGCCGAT",
    "PBM binding z-score": 2.23
  },
  {
    "Sequence record": "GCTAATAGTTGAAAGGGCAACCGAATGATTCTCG",
    "PBM binding z-score": 0.805
  },
  {
    "Sequence record": "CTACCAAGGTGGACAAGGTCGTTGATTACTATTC",
    "PBM binding z-score": 0.874
  },
  {
    "Sequence record": "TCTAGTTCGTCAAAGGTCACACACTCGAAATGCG",
    "PBM binding z-score": 2.95
  },
  {
    "Sequence record": "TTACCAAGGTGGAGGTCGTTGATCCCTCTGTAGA",
    "PBM binding z-score": 0.0989
  },
  {
    "Sequence record": "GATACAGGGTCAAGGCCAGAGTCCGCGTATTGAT",
    "PBM binding z-score": 1.91
  },
  {
    "Sequence record": "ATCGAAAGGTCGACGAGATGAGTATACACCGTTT",
    "PBM binding z-score": 1.01
  },
  {
    "Sequence record": "ATATGTAGGTTATCGCGTCATTCAGTTTGCGCAT",
    "PBM binding z-score": 0.806
  },
  {
    "Sequence record": "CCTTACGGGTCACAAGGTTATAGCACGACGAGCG",
    "PBM binding z-score": 1.18
  },
  {
    "Sequence record": "AGAATGAGGTTACCAAAGATCACGGAAACGCTTG",
    "PBM binding z-score": 1.17
  }
]

Origin of the recorded values: the supplement of paper PMC6555819
